- Cond: in furfural, 287.37 K
Measure: solubility (mole fraction)
// print number alone

Ask: Specify solubility (mole fraction) for `CCCCCCCC[n+]1csc2ccccc21.F[P-](F)(F)(F)(F)F` and stop.
Result: 0.445

----------
- Cond: in water, 300.15 K
Listed next: entries and their corresponding solubility (mole fraction).
// return a plain number; no unit text

# Molecule Smiles, solubility (mole fraction)
data = [
    ("CCCCCCC[n+]1csc2ccccc21.F[P-](F)(F)(F)(F)F", "5.5e-05"),
]

Ask: Let me know recorded solubility (mole fraction) for `CCCCCCCC[n+]1csc2ccccc21.F[P-](F)(F)(F)(F)F` , thanks.
Result: 4.01e-05

----------
- Cond: in furfural, 274.55 K
Measure: solubility (mole fraction)

Ask: For the molecule `CCCCCCC[n+]1csc2ccccc21.F[P-](F)(F)(F)(F)F` , report solubility (mole fraction).
Result: 0.276

----------
- Cond: in water, 343.1 K
Measure: solubility (mole fraction)
The answer should be written as a number, with no unit following it.

Ask: Find the measured solubility (mole fraction) of `CCCC[n+]1csc2ccccc21.F[P-](F)(F)(F)(F)F` and report it.
Result: 0.000839

----------
- Cond: in furfural, 317.62 K
Measure: solubility (mole fraction)

Ask: State its solubility (mole fraction) for this compound: `CCCC[n+]1csc2ccccc21.F[P-](F)(F)(F)(F)F`
Result: 0.333

----------
- Cond: in furfural, 276 K
Measure: solubility (mole fraction)

Ask: Please report the measured solubility (mole fraction) for `CCCCCC[n+]1csc2ccccc21.F[P-](F)(F)(F)(F)F`
Result: 0.208

----------
- Cond: in furfural, 321.62 K
Measure: solubility (mole fraction)
Could you keep your reply to the number by itself?

Ask: Please look at this molecule and report its solubility (mole fraction): `CCCCCC[n+]1csc2ccccc21.F[P-](F)(F)(F)(F)F`
Result: 0.451

----------
- Cond: in water, 323 K
Measure: solubility (mole fraction)

Ask: Give solubility (mole fraction) for the following compound: `CCCC[n+]1csc2ccccc21.F[P-](F)(F)(F)(F)F`
Result: 0.000405

----------
- Cond: in furfural, 300.95 K
Measure: solubility (mole fraction)
Field format: numeric only.

Ask: Give the measured solubility (mole fraction) for `CCCCCCCC[n+]1csc2ccccc21.F[P-](F)(F)(F)(F)F`
Result: 0.597

----------
- Cond: in water, 302.15 K
Measure: solubility (mole fraction)
Field format: numeric only.

Ask: Name the recorded solubility (mole fraction) of the compound listed here: `CCCCC[n+]1csc2ccccc21.F[P-](F)(F)(F)(F)F`
Result: 6.5e-05

----------
- Cond: in furfural, 292.47 K
Measure: solubility (mole fraction)
Note: the reply should be a number with no unit written.

Ask: Answer with the recorded solubility (mole fraction) for the molecule listed here: `CCCCCCCC[n+]1csc2ccccc21.F[P-](F)(F)(F)(F)F`
Result: 0.5

----------
- Cond: in furfural, 310.41 K
Measure: solubility (mole fraction)

Ask: Please look at this compound and report its solubility (mole fraction): `CCCCCCC[n+]1csc2ccccc21.F[P-](F)(F)(F)(F)F`
Result: 0.47

----------
- Cond: in furfural, 271.1 K
Measure: solubility (mole fraction)
Answer as a number with no unit attached.

Ask: State its solubility (mole fraction): `CCCCCCCC[n+]1csc2ccccc21.F[P-](F)(F)(F)(F)F`
Result: 0.33

----------
- Cond: in furfural, 330 K
Measure: solubility (mole fraction)
Give the figure only, with no unit attached.

Ask: Return solubility (mole fraction) for the following compound: `CCCCC[n+]1csc2ccccc21.F[P-](F)(F)(F)(F)F`
Result: 0.214

----------
- Cond: in furfural, 278.47 K
Measure: solubility (mole fraction)
I'd appreciate a reply containing only the number, no unit.

Ask: Give the measured solubility (mole fraction) for `CCCCCCCC[n+]1csc2ccccc21.F[P-](F)(F)(F)(F)F`
Result: 0.38

----------
- Cond: in furfural, 296.07 K
Measure: solubility (mole fraction)
Form: value (number only, do not type unit).

Ask: Answer with the recorded solubility (mole fraction) for the compound listed here: `CCCCCCCC[n+]1csc2ccccc21.F[P-](F)(F)(F)(F)F`
Result: 0.541

----------
- Cond: in furfural, 280.85 K
Measure: solubility (mole fraction)
API doc: respond with a numeric literal and nothing else, no unit.

Ask: Respond only with solubility (mole fraction) recorded for `CCCCCCC[n+]1csc2ccccc21.F[P-](F)(F)(F)(F)F`
Result: 0.297

----------
The entries below come with measured solubility (mole fraction) values attached.
- Cond: in water, 308.15 K
No unit in the answer, only the number.

Solved cases below.
# Molecule Smiles, solubility (mole fraction)
data = [
    ("CCCCCC[n+]1csc2ccccc21.F[P-](F)(F)(F)(F)F", "9.38e-05"),
    ("CCCCCCCC[n+]1csc2ccccc21.F[P-](F)(F)(F)(F)F", "5.5e-05"),
    ("CCCCCCC[n+]1csc2ccccc21.F[P-](F)(F)(F)(F)F", "7.07e-05"),
]

Okay, now this compound:
Ask: Give recorded solubility (mole fraction). `CCCCC[n+]1csc2ccccc21.F[P-](F)(F)(F)(F)F`
Result: 8.63e-05

----------
- Cond: in water, 368.55 K
Measure: solubility (mole fraction)
Just the number, please, no unit attached.

Ask: Consider the compound `CCCCCCC[n+]1csc2ccccc21.F[P-](F)(F)(F)(F)F` and give its recorded solubility (mole fraction).
Result: 0.000521

----------
- Cond: in water, 282.75 K
Measure: solubility (mole fraction)
Note: the reply should be a number with no unit written.

Ask: Fill in reported solubility (mole fraction) for this entry: `CCCCCC[n+]1csc2ccccc21.F[P-](F)(F)(F)(F)F`
Result: 3.31e-05

----------
Measured solubility (mole fraction) of individual entries
- Cond: in water, 338.05 K

Sample records with solubility (mole fraction):
# Molecule Smiles, solubility (mole fraction)
measured = [
    ("CCCC[n+]1csc2ccccc21.F[P-](F)(F)(F)(F)F", 0.000721),
    ("CCCCCC[n+]1csc2ccccc21.F[P-](F)(F)(F)(F)F", 0.000322),
    ("CCCCCCC[n+]1csc2ccccc21.F[P-](F)(F)(F)(F)F", 0.00023),
]

Ask: Quickly give me recorded solubility (mole fraction) for `CCCCC[n+]1csc2ccccc21.F[P-](F)(F)(F)(F)F`
Result: 0.000259

----------
- Cond: in water, 342.75 K
Measure: solubility (mole fraction)
Enter a number only.

Please review the following examples before continuing.
# Molecule Smiles, Reported Result
measured = [
    ("CCCCCC[n+]1csc2ccccc21.F[P-](F)(F)(F)(F)F", 0.000404),
    ("CCCCC[n+]1csc2ccccc21.F[P-](F)(F)(F)(F)F", 0.000293),
]

Now examine the next entry.
Ask: Return solubility (mole fraction) (reported value) for this compound: `CCCCCCC[n+]1csc2ccccc21.F[P-](F)(F)(F)(F)F`
Result: 0.000272

----------
- Cond: in water, 323.15 K
Measure: solubility (mole fraction)
When you answer, write just the number.

See these solved cases before continuing.
# Molecule Smiles, solubility (mole fraction)
measured = [
    ("CCCCCCCC[n+]1csc2ccccc21.F[P-](F)(F)(F)(F)F", 0.000107),
    ("CCCCCCC[n+]1csc2ccccc21.F[P-](F)(F)(F)(F)F", 0.000124),
    ("CCCCCC[n+]1csc2ccccc21.F[P-](F)(F)(F)(F)F", 0.000156),
]

Ask: For the compound `CCCCC[n+]1csc2ccccc21.F[P-](F)(F)(F)(F)F` , give its measured solubility (mole fraction) value.
Result: 0.000153

----------
- Cond: in furfural, 318.39 K
Measure: solubility (mole fraction)
Provide a numeric answer; units are not to be included.

Ask: Look up and state reported solubility (mole fraction) for `CCCCCC[n+]1csc2ccccc21.F[P-](F)(F)(F)(F)F`
Result: 0.424

----------
- Cond: in water, 333.1 K
Measure: solubility (mole fraction)
Keep the answer to the number alone.

Ask: Give reported solubility (mole fraction) value for `CCCC[n+]1csc2ccccc21.F[P-](F)(F)(F)(F)F`
Result: 0.0006

----------
- Cond: in water, 367.75 K
Measure: solubility (mole fraction)
Please respond with just the number, no unit label.

Ask: Read the entry `CCCCCCCC[n+]1csc2ccccc21.F[P-](F)(F)(F)(F)F` and write its reported solubility (mole fraction).
Result: 0.000285

----------
- Cond: in furfural, 296.15 K
Measure: solubility (mole fraction)
Would you mind answering with just the numeric figure?

Ask: Hello, please tell me recorded solubility (mole fraction) for this one: `CCCCC[n+]1csc2ccccc21.F[P-](F)(F)(F)(F)F`
Result: 0.118

----------
- Cond: in furfural, 301.2 K
Measure: solubility (mole fraction)
Output spec: single numeric token, no unit.

Ask: Report measured solubility (mole fraction); entry is `CCCCCCC[n+]1csc2ccccc21.F[P-](F)(F)(F)(F)F`
Result: 0.41

From: BigSolDB 2.1
